I'd appreciate it if you could supply AUC 0-t values for the items below.
# testDetails: pharmacokinetics of 16 ginsenosides in rat plasma after oral administration of RGS
# Assay type: in vivo
# measurementSetup: model (scopolamine 1 mg/kg i.p.-treated) rats, oral RGS single dose 100 mg/kg, plasma, mean ± S.D., n = 5
One number for each entry, in ng·h/g.

>>> reportedmeasurement("CC(C)=CCCC(C)(OC1OC(CO)C(O)C(O)C1O)C1CCC2(C)C1C(O)CC1C3(C)CCC(O)C(C)(C)C3C(OC3OC(CO)C(O)C(O)C3OC3OC(C)C(O)C(O)C3O)CC12C (stereo not shown) [Re]")
298.6
>>> reportedmeasurement("CC(C)=CCCC(C)(OC1OC(COC2OC(CO)C(O)C2O)C(O)C(O)C1O)C1CCC2(C)C1C(O)CC1C3(C)CCC(OC4OC(CO)C(O)C(O)C4OC4OC(CO)C(O)C(O)C4O)C(C)(C)C3CCC12C (stereo not shown) [Rc]")
109.8
>>> reportedmeasurement("CC(C)=CCCC(C)(O)C1CCC2(C)C1C(O)CC1C3(C)CCC(O)C(C)(C)C3C(OC3OC(CO)C(O)C(O)C3O)CC12C (stereo not shown) [Rh1]")
278.6

Proceed to the following item.
### Prompt Which AUC 0-t is reported for this compound? CC(C)=CCCC(C)(OC1OC(CO)C(O)C(O)C1O)C1CCC2(C)C1C(O)CC1C3(C)CCC(OC4OC(CO)C(O)C(O)C4OC4OC(CO)C(O)C(O)C4O)C(C)(C)C3CCC12C (stereo not shown) [Rd]
### Response 331.2

###

# testDetails: pharmacokinetics of 16 ginsenosides in rat plasma after oral administration of RGS
# Format: in vivo
# measurementSetup: SD, rat, plasma, po, 100 mg/kg, model (scopolamine 1 mg/kg i.p.-treated) rats, oral RGS single dose 100 mg/kg, plasma, mean ± S.D., n = 5; read-out: T Max
I'd appreciate it if you could supply Tmax values for the items below.
Give bare numbers, in h.

Recorded Tmax, per entry:
>>> reportedmeasurement("CC(C)=CCCC(C)(OC1OC(CO)C(O)C(O)C1O)C1CCC2(C)C1C(O)CC1C3(C)CCC(O)C(C)(C)C3C(OC3OC(CO)C(O)C(O)C3O)CC12C (centres unmarked)")
4
>>> reportedmeasurement("CC(C)=CCC=C(C)C1CCC2(C)C1C(O)CC1C3(C)CCC(OC4OC(CO)C(O)C(O)C4OC4OC(CO)C(O)C(O)C4O)C(C)(C)C3CCC12C (centres unmarked)")
8
>>> reportedmeasurement("CC(C)=CCCC(C)(OC1OC(COC2OC(CO)C(O)C(O)C2O)C(O)C(O)C1O)C1CCC2(C)C1C(O)CC1C3(C)CCC(OC4OC(CO)C(O)C(O)C4OC4OC(CO)C(O)C(O)C4O)C(C)(C)C3CCC12C (centres unmarked)")
4.1

Give Tmax for all compounds that follow.
1. CC(C)=CCCC(C)(OC1OC(COC2OC(CO)C(O)C2O)C(O)C(O)C1O)C1CCC2(C)C1C(O)CC1C3(C)CCC(OC4OC(CO)C(O)C(O)C4OC4OC(CO)C(O)C(O)C4O)C(C)(C)C3CCC12C (centres unmarked)
2. C=C(CCC=C(C)C)C1CCC2(C)C1C(O)CC1C3(C)CCC(OC4OC(CO)C(O)C(O)C4OC4OC(CO)C(O)C(O)C4O)C(C)(C)C3CCC12C (centres unmarked)

### Response
1: 1.5; 2: 6

###

# testDetails: pharmacokinetics of 16 ginsenosides in rat plasma after oral administration of RGS
# Assay type: in vivo
# measurementSetup: SD, rat, in vivo, po, 100 mg/kg, model (scopolamine 1 mg/kg i.p.-treated) rats, oral RGS single dose 100 mg/kg, plasma, mean ± S.D., n = 5; read-out: C Max
I'd appreciate it if you could supply Cmax values for the items below.
One number for each entry, in ng/g.

>>> reportedmeasurement("CC(C)=CCCC(C)(O)C1CCC2(C)C1C(O)CC1C3(C)CCC(O)C(C)(C)C3C(OC3OC(CO)C(O)C(O)C3O)CC12C (centres unmarked) [Rh1]")
46.9

Proceed to the following item.
### Prompt Which Cmax is reported for this compound? CC(C)=CCCC(C)(O)C1CCC2(C)C1C(O)CC1C3(C)CCC(OC4OC(CO)C(O)C(O)C4O)C(C)(C)C3CCC12C (centres unmarked) [Rh2]
### Response 30.2

###

# testDetails: pharmacokinetics of 16 ginsenosides in rat plasma after oral administration of RGS
# Format: in vivo
# measurementSetup: SD, rat, in vivo, po, 100 mg/kg
endpointLabel: T1/2
Please state the value followed by its unit.

>>> reportedmeasurement("CC(C)=CCCC(C)(O)C1CCC2(C)C1C(O)CC1C3(C)CCC(OC4OC(CO)C(O)C(O)C4OC4OC(CO)C(O)C(O)C4O)C(C)(C)C3CCC12C (stereo not drawn) [Rg3]")
"19.8 ± 1.5 h"

Give T1/2 for all compounds that follow.
1. C=C(CCC=C(C)C)C1CCC2(C)C1C(O)CC1C3(C)CCC(O)C(C)(C)C3C(OC3OC(CO)C(O)C(O)C3O)CC12C (stereo not drawn) [Rk3]
2. CC(C)=CCC=C(C)C1CCC2(C)C1C(O)CC1C3(C)CCC(O)C(C)(C)C3C(OC3OC(CO)C(O)C(O)C3O)CC12C (stereo not drawn) [Rh4]

### Response
1. 6.9 ± 2.1 h
2. 9.9 ± 2.1 h

###

# testDetails: pharmacokinetics of 16 ginsenosides in rat plasma after oral administration of RGS
# Type: in vivo
# measurementSetup: SD, rat, in vivo, po, 100 mg/kg, T Max
I'd appreciate it if you could supply Tmax values for the items below.
Answers are plain numbers, in h.

Recorded Tmax, per entry:
>>> reportedmeasurement("CC(C)=CCC=C(C)C1CCC2(C)C1C(O)CC1C3(C)CCC(OC4OC(CO)C(O)C(O)C4O)C(C)(C)C3CCC12C (centres unmarked)")
14.4
>>> reportedmeasurement("C=C(CCC=C(C)C)C1CCC2(C)C1C(O)CC1C3(C)CCC(O)C(C)(C)C3C(OC3OC(CO)C(O)C(O)C3O)CC12C (centres unmarked)")
1
>>> reportedmeasurement("CC(C)=CCC[C@](C)(O)[C@H]1CC[C@]2(C)[C@@H]1[C@H](O)C[C@@H]1[C@@]3(C)CC[C@H](O)C(C)(C)[C@@H]3[C@@H](O[C@@H]3O[C@H](CO)[C@@H](O)[C@H](O)[C@H]3O[C@@H]3O[C@@H](C)[C@H](O)[C@@H](O)[C@H]3O)C[C@]12C [Rg2, Ginsenoside Rg2]")
1.5

Give Tmax for all molecules that follow.
1. CC(C)=CCC=C(C)C1CCC2(C)C1C(O)CC1C3(C)CCC(O)C(C)(C)C3C(OC3OC(CO)C(O)C(O)C3O)CC12C (centres unmarked)
2. CC(C)=CCCC(C)(O)C1CCC2(C)C1C(O)CC1C3(C)CCC(O)C(C)(C)C3C(OC3OC(CO)C(O)C(O)C3OC3OC(CO)C(O)C(O)C3O)CC12C (centres unmarked)

### Response
4
2

###

# testDetails: pharmacokinetics of 16 ginsenosides in rat plasma after oral administration of RGS
# Assay type: in vivo
# measurementSetup: SD, rat, in vivo, po, 100 mg/kg, normal rats, oral RGS single dose 100 mg/kg, plasma, mean ± S.D., n = 5; read-out: T Max
endpointLabel: Tmax

>>> reportedmeasurement("CC(C)=CCCC(C)(O)C1CCC2(C)C1C(O)CC1C3(C)CCC(O)C(C)(C)C3C(OC3OC(CO)C(O)C(O)C3O)CC12C (centres unmarked)")
"1 h"

Proceed to the following item.
### Prompt Which Tmax is reported for this compound? CC(C)=CCCC(C)(O)C1CCC2(C)C1C(O)CC1C3(C)CCC(OC4OC(CO)C(O)C(O)C4O)C(C)(C)C3CCC12C (centres unmarked)
### Response 2 h

###

I'd appreciate it if you could supply MRT values for the items below.
# testDetails: pharmacokinetics of 16 ginsenosides in rat plasma after oral administration of RGS
# Type: in vivo
# measurementSetup: SD, rat, in vivo, po, 100 mg/kg, MRT
Numbers only, in h.

Recorded MRT, per entry:
>>> reportedmeasurement("CC(C)=CCC=C(C)C1CCC2(C)C1C(O)CC1C3(C)CCC(O)C(C)(C)C3C(OC3OC(CO)C(O)C(O)C3O)CC12C (centres unmarked) [Rh4]")
11.2
>>> reportedmeasurement("CC(C)=CCCC(C)(O)C1CCC2(C)C1C(O)CC1C3(C)CCC(OC4OC(CO)C(O)C(O)C4OC4OC(CO)C(O)C(O)C4O)C(C)(C)C3CCC12C (centres unmarked) [Rg3]")
24.3
>>> reportedmeasurement("CC(C)=CCC[C@](C)(O)[C@H]1CC[C@]2(C)[C@@H]1[C@H](O)C[C@@H]1[C@@]3(C)CC[C@H](O)C(C)(C)[C@@H]3[C@@H](O[C@@H]3O[C@H](CO)[C@@H](O)[C@H](O)[C@H]3O[C@@H]3O[C@@H](C)[C@H](O)[C@@H](O)[C@H]3O)C[C@]12C [Rg2, Ginsenoside Rg2]")
22.3

Give MRT for all compounds that follow.
1. CC(C)=CCCC(C)(O)C1CCC2(C)C1C(O)CC1C3(C)CCC(O)C(C)(C)C3C(OC3OC(CO)C(O)C(O)C3OC3OC(CO)C(O)C(O)C3O)CC12C (centres unmarked) [Rf]
2. CC(C)=CCC=C(C)C1CCC2(C)C1C(O)CC1C3(C)CCC(OC4OC(CO)C(O)C(O)C4O)C(C)(C)C3CCC12C (centres unmarked) [Rh3]

### Response
1: 6.5; 2: 15.6
